Molecular target: UniProt Q06187
Sequence (Q06187 whole entry): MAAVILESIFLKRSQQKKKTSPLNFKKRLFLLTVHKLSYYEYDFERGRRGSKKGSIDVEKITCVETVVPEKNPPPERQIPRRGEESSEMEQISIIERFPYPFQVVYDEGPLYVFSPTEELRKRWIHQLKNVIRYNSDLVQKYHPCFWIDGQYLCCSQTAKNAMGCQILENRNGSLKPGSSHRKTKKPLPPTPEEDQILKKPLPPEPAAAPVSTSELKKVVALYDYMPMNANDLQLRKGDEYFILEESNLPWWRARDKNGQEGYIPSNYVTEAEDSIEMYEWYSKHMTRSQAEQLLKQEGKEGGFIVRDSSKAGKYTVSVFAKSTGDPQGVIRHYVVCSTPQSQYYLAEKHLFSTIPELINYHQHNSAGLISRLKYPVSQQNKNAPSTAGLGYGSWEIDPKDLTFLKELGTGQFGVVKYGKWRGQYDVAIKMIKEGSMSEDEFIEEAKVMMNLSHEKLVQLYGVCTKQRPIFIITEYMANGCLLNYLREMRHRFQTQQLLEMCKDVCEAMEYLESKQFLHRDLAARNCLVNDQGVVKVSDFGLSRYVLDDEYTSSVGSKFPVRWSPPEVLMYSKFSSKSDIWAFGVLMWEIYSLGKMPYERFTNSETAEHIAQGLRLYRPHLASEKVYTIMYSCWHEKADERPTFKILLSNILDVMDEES
Experiment: Protein kinase selectivity panel
Assay type: biochemical
Conditions: 1.0 μM compound, 10 μM ATP
Record form. Attribute: Activity at Protein Kinase Assays (% of control), BTK(h). Fill in for each entry.

According to the records, this molecule "O=C1NC(=O)C2=C1c1cn(c3ccccc13)CCCc1cc(nc(N3CCCC3)c1)CCCn1cc2c2ccccc21" displays Activity at Protein Kinase Assays (% of control), BTK(h) of 106 % of control

According to the records, this molecule "O=C1NC(=O)C2=C1c1cn(c3ccccc13)CCCc1ccc(c(N3CCCC3)n1)CCCn1cc2c2ccccc21" displays Activity at Protein Kinase Assays (% of control), BTK(h) of 104 % of control

According to the records, this molecule "CN(C)c1nc2ccc1CCCCn1cc(c3ccccc31)C1=C(C(=O)NC1=O)c1cn(c3ccccc13)CCC2" displays Activity at Protein Kinase Assays (% of control), BTK(h) of 105 % of control

According to the records, this molecule "CN(C)c1cc2cc(n1)CCCn1cc(c3ccccc31)C1=C(C(=O)NC1=O)c1cn(c3ccccc13)CCC2" displays Activity at Protein Kinase Assays (% of control), BTK(h) of 106 % of control

Cited source for all entries: patent US7759331B2
